All values here come from patent US11136315B2.

Target: CXCR2 (Homo sapiens (Human))
Assay: PathHunter CXCR2 β-arrestin cell assay, antagonism of CXCL8 (EC80)
Conditions: PathHunter CXCR2 β-arrestin cells, CXCL8 agonist at EC80
Definition: the class of an entry is the range in lower = under 40 nM, middle = from 40 nM up to 200 nM, upper = 200 nM and over that contains its IC50.

INSERT INTO assay_data (compound, category_label) VALUES
  ('O=C(Nc1ccc(Cl)c(S(=O)(=O)[C@H]2CCCNC2)c1O)NC1CCCc2ccoc21 (single isomer, unassigned) [WX013A]', 'lower'),
  ('O=C(Nc1ccc(Cl)c(S(=O)(=O)C2CC3(CNC3)C2)c1O)NC1CCCc2ccoc21 (single isomer, unassigned) [WX021A]', 'upper'),
  ('COC(=O)NCCS(=O)(=O)c1c(Cl)ccc(NC(=O)NC2CCCc3ccoc32)c1O (single isomer, unassigned) [WX017A]', 'middle'),
  ('O=C(Nc1ccc(Cl)c(S(=O)(=O)C2CCCNC2)c1O)NC1CCCc2sccc21 (single isomer, unassigned) [WX024B]', 'upper'),
  ('O=C(Nc1ccc(Cl)c(S(=O)(=O)C2CC2)c1O)NC1CCCc2cc(C(F)(F)F)oc21 (centres unmarked)', 'middle');

q: State the band of Cc1cc2c(o1)C(NC(=O)Nc1ccc(Cl)c(S(=O)(=O)[C@H]3CCCNC3)c1O)CCC2 (single isomer, unassigned) [WX029B]
a: upper

q: Hi there! Could you help me figure out the category for CC(C)(C)S(=O)(=O)c1c(Cl)ccc(NC(=O)NC2CCCc3ccoc32)c1O (single isomer, unassigned) [WX005A] please?
a: lower

q: Tag the class for CS(=O)(=O)c1c(Cl)ccc(NC(=O)N[C@H]2CCCc3ccoc32)c1O [WX008A]
a: middle

###

Experiment: Pharmacokinetic evaluation in C57BL/6 mice
Type: in vivo
Settings: male, mouse, plasma, intravenous 1 mpk / gavage 5 mpk study, route not stated, unit printed shifted under first column, read-out: Area under the drug concentration time curve (AUC)
measured property: AUC (µM·h)
Numbers only, in µM·h.

INSERT INTO assay_data (molecule, measured_property, val) VALUES
  ('O=C(Nc1ccc(Cl)c(S(=O)(=O)C2CC2)c1O)NC1CCCc2ccoc21 (single isomer, unassigned) [WX006A]', 'AUC', 20.1),
  ('Cc1c(F)cccc1NC(=O)Nc1ccc(Cl)c(S(=O)(=O)[C@H]2CCCNC2)c1O [Danirixin, danirixin, reference compound]', 'AUC', 1.58),
  ('O=C(Nc1ccc(Cl)c(S(=O)(=O)[C@H]2CCCNC2)c1O)NC1CCCc2ccoc21 (single isomer, unassigned) [WX013A]', 'AUC', 4.44);

Now look at this one.
q: Output measured AUC for this item: O=C(Nc1ccc(Cl)c(S(=O)(=O)CC(F)(F)F)c1O)N[C@H]1CCCc2ccoc21 [WX012A]
a: 9.39

###

Target: CXCR2 (Homo sapiens (Human), UniProt P25025)
Sequence (P25025 whole entry): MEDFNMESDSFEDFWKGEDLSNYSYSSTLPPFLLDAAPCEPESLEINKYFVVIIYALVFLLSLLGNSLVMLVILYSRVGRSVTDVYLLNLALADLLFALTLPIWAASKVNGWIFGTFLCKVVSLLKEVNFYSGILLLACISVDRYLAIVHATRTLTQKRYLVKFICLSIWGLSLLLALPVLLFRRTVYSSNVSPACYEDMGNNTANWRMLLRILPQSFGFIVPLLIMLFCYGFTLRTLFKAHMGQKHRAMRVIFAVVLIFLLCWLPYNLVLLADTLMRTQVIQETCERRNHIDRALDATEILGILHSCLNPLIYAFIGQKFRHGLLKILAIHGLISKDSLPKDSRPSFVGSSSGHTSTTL
Assay: PathHunter CXCR2 β-arrestin cell assay, antagonism of CXCL8 (EC80)
Conditions: PathHunter CXCR2 β-arrestin cells, CXCL8 agonist at EC80
measured property: pIC50
Numbers only, as −log10 of the molar value.

Go through the items and report each one's pIC50.
1. O=C(Nc1ccc(Cl)c(S(=O)(=O)C2CCCC2)c1O)N[C@H]1CCCc2ccoc21 [WX010A]
2. O=C(Nc1ccc(Cl)c(S(=O)(=O)[C@H]2CCCNC2)c1O)NC1CCCc2occc21 (single isomer, unassigned) [WX001A]
3. Cc1cc2c(o1)C(NC(=O)Nc1ccc(Cl)c(S(=O)(=O)[C@H]3CCCNC3)c1O)CCC2 (some centres unmarked) [WX029]
4. O=C(Nc1ccc(Cl)c(S(=O)(=O)C2CCNCC2)c1O)N[C@H]1CCCc2ccoc21 (single isomer, unassigned) [WX023A]
5. Cc1cc2c(o1)C(NC(=O)Nc1ccc(Cl)c(S(=O)(=O)C3CC3)c1O)CCC2 (centres unmarked)

a:
1. 7.21
2. 6.82
3. 7.82
4. 7.44
5. 8.22
